Lab note: IC50 readings collected with Xanthine dehydrogenase/oxidase (Bos taurus, UniProt P80457) for the following molecules.
Sequence (P80457 whole entry): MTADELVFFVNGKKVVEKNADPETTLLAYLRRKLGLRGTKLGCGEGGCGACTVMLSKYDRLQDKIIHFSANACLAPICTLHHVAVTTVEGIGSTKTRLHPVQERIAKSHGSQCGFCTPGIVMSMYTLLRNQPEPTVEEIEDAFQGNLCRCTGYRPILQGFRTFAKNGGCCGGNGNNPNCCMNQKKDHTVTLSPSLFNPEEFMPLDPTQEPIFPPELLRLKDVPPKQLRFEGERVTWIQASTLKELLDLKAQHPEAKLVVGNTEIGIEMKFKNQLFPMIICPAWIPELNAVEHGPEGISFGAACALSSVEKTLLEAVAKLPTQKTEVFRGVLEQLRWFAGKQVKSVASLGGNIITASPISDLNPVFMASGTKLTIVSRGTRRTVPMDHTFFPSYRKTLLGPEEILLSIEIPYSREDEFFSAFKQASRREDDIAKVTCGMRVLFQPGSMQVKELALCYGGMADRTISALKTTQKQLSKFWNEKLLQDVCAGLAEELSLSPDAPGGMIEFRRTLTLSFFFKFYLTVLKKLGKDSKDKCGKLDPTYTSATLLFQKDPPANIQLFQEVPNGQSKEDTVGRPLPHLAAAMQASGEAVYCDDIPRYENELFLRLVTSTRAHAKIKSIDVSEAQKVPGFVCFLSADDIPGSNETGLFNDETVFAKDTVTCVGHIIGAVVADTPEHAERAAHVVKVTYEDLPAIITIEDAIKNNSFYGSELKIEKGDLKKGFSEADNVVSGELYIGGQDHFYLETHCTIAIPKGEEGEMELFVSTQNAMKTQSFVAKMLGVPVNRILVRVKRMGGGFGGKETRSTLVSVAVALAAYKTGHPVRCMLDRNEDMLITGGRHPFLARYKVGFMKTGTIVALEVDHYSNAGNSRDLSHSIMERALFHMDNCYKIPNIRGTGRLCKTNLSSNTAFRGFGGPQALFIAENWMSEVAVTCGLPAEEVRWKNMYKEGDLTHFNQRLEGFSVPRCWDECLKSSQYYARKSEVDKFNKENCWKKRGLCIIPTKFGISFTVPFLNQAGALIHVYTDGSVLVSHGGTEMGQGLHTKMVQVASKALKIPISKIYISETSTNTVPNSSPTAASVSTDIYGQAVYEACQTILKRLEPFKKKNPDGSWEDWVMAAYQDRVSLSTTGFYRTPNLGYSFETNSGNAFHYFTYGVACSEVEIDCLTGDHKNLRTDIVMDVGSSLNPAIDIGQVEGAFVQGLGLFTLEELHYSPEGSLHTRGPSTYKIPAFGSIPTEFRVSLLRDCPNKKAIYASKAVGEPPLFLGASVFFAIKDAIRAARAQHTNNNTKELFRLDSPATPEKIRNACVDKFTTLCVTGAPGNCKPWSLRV

| SMILES REPRESENTATION | IC50 |
| --- | --- |
| COc1ccc(-c2cc(NS(C)(=O)=O)nc(N)n2)cc1 | > 100 µM |
| COc1ccc(-c2cc(C(F)(F)F)nc(N)n2)cc1 | > 100 µM |

meta.source: ChEMBL document CHEMBL2021908
